Biological target: T1, B-cat-Halo (UniProt P35222 1-781)
T1 sequence (looked up): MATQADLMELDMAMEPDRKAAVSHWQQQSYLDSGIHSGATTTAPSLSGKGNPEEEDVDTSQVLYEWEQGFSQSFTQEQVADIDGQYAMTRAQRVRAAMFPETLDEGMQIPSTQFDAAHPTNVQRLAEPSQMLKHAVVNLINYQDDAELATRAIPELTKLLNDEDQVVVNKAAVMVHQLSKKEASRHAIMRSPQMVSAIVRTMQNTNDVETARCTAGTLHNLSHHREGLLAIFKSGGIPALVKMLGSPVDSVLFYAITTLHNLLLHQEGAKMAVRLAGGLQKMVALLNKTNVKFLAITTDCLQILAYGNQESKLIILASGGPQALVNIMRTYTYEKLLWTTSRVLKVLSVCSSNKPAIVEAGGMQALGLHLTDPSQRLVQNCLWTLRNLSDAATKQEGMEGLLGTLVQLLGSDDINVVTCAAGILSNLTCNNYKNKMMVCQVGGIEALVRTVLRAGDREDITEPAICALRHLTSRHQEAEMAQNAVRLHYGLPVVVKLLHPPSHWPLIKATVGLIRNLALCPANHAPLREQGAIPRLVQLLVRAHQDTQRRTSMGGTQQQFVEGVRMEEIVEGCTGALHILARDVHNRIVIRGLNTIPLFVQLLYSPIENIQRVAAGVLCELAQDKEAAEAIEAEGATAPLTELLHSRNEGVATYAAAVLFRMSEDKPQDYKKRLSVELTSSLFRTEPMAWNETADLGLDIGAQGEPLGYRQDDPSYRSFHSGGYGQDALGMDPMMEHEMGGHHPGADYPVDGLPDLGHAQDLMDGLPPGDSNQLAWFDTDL
Test: cell-based or functional assay
Starred links: 1 amine or outer side, 2 acyl side, 3 side chain; linkers in the order of their positions; H or OH if unused. Positions of bridges follow the written chain, without caps; N, C: chain ends. Non-standard residues stand in square brackets, D forms with d. Primed or numbered codes have the meaning given here. PyrS2″ = (S)-3-amino-1-((pent-4-en-1-yloxy)carbonyl)pyrrolidine-3-carboxylic acid (stapling residue), C=CCCCOC(=O)N1CC[C@@](N[*:1])(C(=O)[*:2])C1; B5(4) = 2,2-bis(4-pentenyl)glycine = 2-amino-2-(pent-4-en-1-yl)hept-6-enoic acid (stitching residue), C=CCCCC(CCCC=C)(N[*:1])C(=O)[*:2]; TfeGA = (S)-2-amino-3-((carboxymethyl)(2,2,2-trifluoroethyl)amino)propanoic acid, O=C([C@H](CN(CC(=O)[*:3])CC(F)(F)F)N[*:1])[*:2]; Phe(3-CONH2) = NC(=O)c1cccc(C[C@H](N)C(=O)O)c1; Phe(2-CF3) = N[C@@H](Cc1ccccc1C(F)(F)F)C(=O)O; Phe(2-CONH2) = NC(=O)c1ccccc1C[C@H](N)C(=O)O; Bta = N[C@@H](Cc1csc2ccccc12)C(=O)O; αAllylPro = C=CC[C@@]1(C(=O)O)CCCN1; tBuAla = CC(C)(C)C[C@H](N)C(=O)O; 3Thi = N[C@@H](Cc1ccsc1)C(=O)O
reported.metric: NanoBRET Abs IC50 (µM)
Number only, in µM; omit the unit.

Ac-[αAllylPro]D[tBuAla][B5(4)]D[TfeGA]AAFL[PyrS2″]F[Bta]Q-NH2 (staple 1-4, 4-11; also: -CH=CH- in each staple reduced to -CH2-CH2-) [I-1711] : 33.3
Ac-[αAllylPro]D[tBuAla][B5(4)]D[TfeGA]AAFL[PyrS2″][3Thi][Bta]A-NH2 (staple 1-4, 4-11) [I-1710] : 3.9
Ac-[αAllylPro]D[tBuAla][B5(4)]D[TfeGA]AAFL[PyrS2″][3Thi][Bta][Phe(2-CONH2)]-NH2 (staple 1-4, 4-11) [I-1707] : 6.1

q: Consider the binder shown here: Ac-[αAllylPro]D[tBuAla][B5(4)]D[TfeGA]AAFL[PyrS2″][Phe(2-CF3)][Bta]Q-NH2 (staple 1-4, 4-11; also: -CH=CH- in each staple reduced to -CH2-CH2-) [I-1714] What is its recorded NanoBRET Abs IC50?
a: 28.6

q: Consider the binder shown here: Ac-[αAllylPro]D[tBuAla][B5(4)]D[TfeGA]AAFL[PyrS2″][3Thi][Bta][Phe(3-CONH2)]-NH2 (staple 1-4, 4-11) [I-1708] What is its recorded NanoBRET Abs IC50?
a: 11.9

q: Consider the binder shown here: Ac-[αAllylPro]D[tBuAla][B5(4)]D[TfeGA]AAFL[PyrS2″][3Thi][Bta]N-NH2 (staple 1-4, 4-11; also: -CH=CH- in each staple reduced to -CH2-CH2-) [I-1715] What is its recorded NanoBRET Abs IC50?
a: 38.4
